Data credit: the RNAGym collection of RNA variant scans (doi:10.1126/science.aae0568)

B1: tRNA (parent)
chain: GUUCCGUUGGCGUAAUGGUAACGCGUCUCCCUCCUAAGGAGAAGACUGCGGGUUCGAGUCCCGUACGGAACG

Variants of: B1
testSummary: yeast fitness relative to wild type (ratio to wild type); higher = fitter; tRNA-Arg(CCU), competitive growth, 37 C, YPD
This sample holds only a part of the variants without activity.
valueKind: yeast fitness

Examples from the recorded data:
mutantId | valueKind | reportedMeasurement
A15C C27U C62U | yeast fitness | ≤ 0.5
A15C G25A U28A | yeast fitness | ≤ 0.5
A15G G17A G48A | yeast fitness | 0.681
G25C C31G C34G G41A C61U A69U | yeast fitness | ≤ 0.5

For every item below, please supply its yeast fitness.
1. G9A C22G U28A C31G C55A G68C
2. A14G C31U G68A
3. C4A C31G C62G G68C
4. U26G U28A A43G C49U C61U G67A
5. C5G A14U A43U U54C
6. U8C G41A A65G
7. C24U C55U

## Output
1. ≤ 0.5
2. 0.568
3. ≤ 0.5
4. ≤ 0.5
5. 0.666
6. 0.63
7. 0.854
